System: B. mandrillaris trophozoites
Experiment: Nitroxoline structure-activity relationship dose response (CellTiter Glo)
Assay type: cell-based, Balamuthia mandrillaris
Conditions: Balamuthia mandrillaris, 72 h, 8-point dose response in triplicate; read-out: IC50
Provide the reported IC50 of each item.
Quick reminder: number only, in µM, skip the unit.

input: Any idea what IC50 was measured for O=[N+]([O-])c1cccc2ncccc12 ?
output: 82.7

input: Any idea what IC50 was measured for Oc1ccc(Br)c2cccnc12 [compound 6, 5-Bromo-8-hydroxyquinoline] ?
output: 48.9

input: Any idea what IC50 was measured for Oc1cccc2cccnc12 [compound 2, 8-Hydroxyquinoline] ?
output: 30.5

input: Any idea what IC50 was measured for Cc1ccc(O)c2ncccc12 ?
output: 19.9

input: Any idea what IC50 was measured for O=[N+]([O-])c1ccc(O)c2ncccc12 [Nitroxoline, 8-hydroxy-5-nitroquinoline] ?
output: 4.77

====

Assay: Cytotoxicity, mean of all cell lines
Type: cell-based
Settings: human, U87, H4, HEK-293T, HFF-1 and Hep-G2 cell lines (mean of all), unit inferred
Description: B. mandrillaris trophozoites were seeded at 4,000 amoebae per well into opaque and clear-bottom 96-well plates (Corning). Homogenous populations of B. mandrillaris cysts generated by galactose induction were seeded at 4,000 amoebae per well into opaque 96-well plates. […] Luminescence was measured with a Promega GloMax-Multi+ plate reader 2, 4, and 8 h after CTG addition. […] IC50 values were determined as previously described. […]
endpoint.name: CC50 at 72 h (µM)
Quick reminder: number only, in µM, skip the unit.

input: Any idea what CC50 at 72 h was measured for CCCCCCCCCCCCCCCCOP(=O)([O-])OCC[N+](C)(C)C ?
output: 49

input: Any idea what CC50 at 72 h was measured for CC[C@H]1OC(=O)[C@H](C)[C@@H](O[C@H]2C[C@@](C)(OC)[C@@H](O)[C@H](C)O2)[C@H](C)[C@@H](O[C@@H]2O[C@H](C)C[C@H](N(C)C)[C@H]2O)[C@](C)(O)C[C@@H](C)CN(C)[C@H](C)[C@@H](O)[C@]1(C)O ?
output: 94.4

input: Any idea what CC50 at 72 h was measured for O=[N+]([O-])c1ccc(O)c2ncccc12 [Nitroxoline, 8-hydroxy-5-nitroquinoline] ?
output: 19.3

input: Any idea what CC50 at 72 h was measured for N=C(N)c1ccc(OCCCCCOc2ccc(C(=N)N)cc2)cc1 [Pentamidine isethionate] ?
output: 11.1

====

Tested on: B. mandrillaris cysts
Test: Dose response, viability of preformed galactose-induced cysts
Assay type: cell-based, Balamuthia mandrillaris
Conditions: Balamuthia mandrillaris, 72 h, read-out: IC50, B. mandrillaris cysts, preformed cysts, 12% galactose induction medium, 72 h
endpoint.name: IC50
Could you give the number and then its unit, please?

input: Give B. mandrillaris cysts IC50 for N=C(N)c1ccc(OCCCCCOc2ccc(C(=N)N)cc2)cc1 [Pentamidine isethionate]
output: 26.3 µM

input: Give B. mandrillaris cysts IC50 for CCCCCCCCCCCCCCCCOP(=O)([O-])OCC[N+](C)(C)C
output: 76.5 µM

input: Give B. mandrillaris cysts IC50 for O=[N+]([O-])c1ccc(O)c2ncccc12 [Nitroxoline, 8-hydroxy-5-nitroquinoline]
output: 15.5 µM

====

Assay: Cytotoxicity dose response, HEK-293T
Assay type: cell-based
Conditions: human, HEK-293T (kidney) cells, unit not given in Table S3, drug concentrations in µM, read-out: CC50 HEK-293T cell line
endpoint.name: CC50 at 72 h (µM)
Quick reminder: number only, in µM, skip the unit.

input: Any idea what CC50 at 72 h was measured for N=C(N)c1ccc(OCCCCCOc2ccc(C(=N)N)cc2)cc1 [Pentamidine isethionate] ?
output: 4.8

input: Any idea what CC50 at 72 h was measured for O=[N+]([O-])c1ccc(O)c2ncccc12 [Nitroxoline, 8-hydroxy-5-nitroquinoline] ?
output: 4.9

input: Any idea what CC50 at 72 h was measured for CC[C@H]1OC(=O)[C@H](C)[C@@H](O[C@H]2C[C@@](C)(OC)[C@@H](O)[C@H](C)O2)[C@H](C)[C@@H](O[C@@H]2O[C@H](C)C[C@H](N(C)C)[C@H]2O)[C@](C)(O)C[C@@H](C)CN(C)[C@H](C)[C@@H](O)[C@]1(C)O ?
output: 120

input: Any idea what CC50 at 72 h was measured for CCCCCCCCCCCCCCCCOP(=O)([O-])OCC[N+](C)(C)C ?
output: 68.8

====

Provide the reported CC50 at 72 h of each item.
Test: Cytotoxicity dose response, HFF-1
Type: cell-based
Conditions: human, HFF-1 (fibroblast) cells, unit not given in Table S3, drug concentrations in µM, read-out: CC50 HFF-1 cell line
Quick reminder: number only, in µM, skip the unit.

input: Any idea what CC50 at 72 h was measured for N=C(N)c1ccc(OCCCCCOc2ccc(C(=N)N)cc2)cc1 [Pentamidine isethionate] ?
output: 23.4

input: Any idea what CC50 at 72 h was measured for CC[C@H]1OC(=O)[C@H](C)[C@@H](O[C@H]2C[C@@](C)(OC)[C@@H](O)[C@H](C)O2)[C@H](C)[C@@H](O[C@@H]2O[C@H](C)C[C@H](N(C)C)[C@H]2O)[C@](C)(O)C[C@@H](C)CN(C)[C@H](C)[C@@H](O)[C@]1(C)O ?
output: 116

input: Any idea what CC50 at 72 h was measured for O=[N+]([O-])c1ccc(O)c2ncccc12 [Nitroxoline, 8-hydroxy-5-nitroquinoline] ?
output: 51.8

input: Any idea what CC50 at 72 h was measured for CCCCCCCCCCCCCCCCOP(=O)([O-])OCC[N+](C)(C)C ?
output: 67.1

====

Test: Cytotoxicity dose response, H4
Type: cell-based
Conditions: human, H4 (glial) cells, unit not given in Table S3, drug concentrations in µM, read-out: CC50 H4 cell line
endpoint.name: CC50 at 72 h (µM)
Quick reminder: number only, in µM, skip the unit.

input: Any idea what CC50 at 72 h was measured for O=[N+]([O-])c1ccc(O)c2ncccc12 [Nitroxoline, 8-hydroxy-5-nitroquinoline] ?
output: 5.6

input: Any idea what CC50 at 72 h was measured for N=C(N)c1ccc(OCCCCCOc2ccc(C(=N)N)cc2)cc1 [Pentamidine isethionate] ?
output: 5.7

input: Any idea what CC50 at 72 h was measured for CC[C@H]1OC(=O)[C@H](C)[C@@H](O[C@H]2C[C@@](C)(OC)[C@@H](O)[C@H](C)O2)[C@H](C)[C@@H](O[C@@H]2O[C@H](C)C[C@H](N(C)C)[C@H]2O)[C@](C)(O)C[C@@H](C)CN(C)[C@H](C)[C@@H](O)[C@]1(C)O ?
output: 95

input: Any idea what CC50 at 72 h was measured for CCCCCCCCCCCCCCCCOP(=O)([O-])OCC[N+](C)(C)C ?
output: 8.4

====

Tested on: B. mandrillaris trophozoites
Assay: Secondary screening dose response, B. mandrillaris trophozoites
Format: cell-based, Balamuthia mandrillaris
Details: Balamuthia mandrillaris, 72 h, read-out: B. mandrillaris IC50
pIC50: −log10 of the molar value.
endpoint.name: pIC50

input: Any idea what pIC50 was measured for N=C(N)c1ccc(OCCCCCOc2ccc(C(=N)N)cc2)cc1 [Pentamidine isethionate] ?
output: 4.96

input: Any idea what pIC50 was measured for C=C1C[C@@H]2[C@H](CC[C@]3(C)C(=O)CC[C@@H]23)[C@@]2(C)C=CC(=O)C=C12 ?
output: < 4.52

input: Any idea what pIC50 was measured for Cc1c(NC(=O)c2cccnc2)c(=O)n(-c2ccccc2)n1C ?
output: < 4.52

input: Any idea what pIC50 was measured for CC#C[C@]1(O)CC[C@H]2[C@@H]3CCC4=CC(=O)CCC4=C3[C@@H](c3ccc(N(C)C)cc3)C[C@@]21C ?
output: < 4.52

input: Any idea what pIC50 was measured for CNC(=C[N+](=O)[O-])NCCSCc1ccc(CN(C)C)o1 ?
output: < 4.52

input: Any idea what pIC50 was measured for CN(C)CCCN1c2ccccc2CCc2ccccc21 ?
output: < 4.52

input: Any idea what pIC50 was measured for COCc1c(C(C)C)nc(C(C)C)c(/C=C/[C@@H](O)C[C@@H](O)CC(=O)O)c1-c1ccc(F)cc1 ?
output: 5.05

input: Any idea what pIC50 was measured for O=[N+]([O-])c1ccc(O)c2ncccc12 [Nitroxoline, 8-hydroxy-5-nitroquinoline] ?
output: 4.96

input: Any idea what pIC50 was measured for CC(C)c1c(C(=O)Nc2ccccc2)c(-c2ccccc2)c(-c2ccc(F)cc2)n1CC[C@@H](O)C[C@@H](O)CC(=O)O ?
output: < 4.52

====

Provide the reported CC50 at 72 h of each item.
Experiment: Cytotoxicity dose response, Hep-G2
Type: cell-based
Details: human, Hep-G2 (liver) cells, unit not given in Table S3, drug concentrations in µM, read-out: CC50 Hep-G2 cell line
Quick reminder: number only, in µM, skip the unit.

input: Any idea what CC50 at 72 h was measured for O=[N+]([O-])c1ccc(O)c2ncccc12 [Nitroxoline, 8-hydroxy-5-nitroquinoline] ?
output: 9.3

input: Any idea what CC50 at 72 h was measured for CC[C@H]1OC(=O)[C@H](C)[C@@H](O[C@H]2C[C@@](C)(OC)[C@@H](O)[C@H](C)O2)[C@H](C)[C@@H](O[C@@H]2O[C@H](C)C[C@H](N(C)C)[C@H]2O)[C@](C)(O)C[C@@H](C)CN(C)[C@H](C)[C@@H](O)[C@]1(C)O [Azithromycin] ?
output: 86.4

input: Any idea what CC50 at 72 h was measured for CCCCCCCCCCCCCCCCOP(=O)([O-])OCC[N+](C)(C)C [Miltefosine] ?
output: 66.1

input: Any idea what CC50 at 72 h was measured for N=C(N)c1ccc(OCCCCCOc2ccc(C(=N)N)cc2)cc1 [Pentamidine isethionate] ?
output: 0.7
